Target: hNav1.5 Peak INa (Homo sapiens, UniProt Q14524)
Sequence (Q14524 whole entry): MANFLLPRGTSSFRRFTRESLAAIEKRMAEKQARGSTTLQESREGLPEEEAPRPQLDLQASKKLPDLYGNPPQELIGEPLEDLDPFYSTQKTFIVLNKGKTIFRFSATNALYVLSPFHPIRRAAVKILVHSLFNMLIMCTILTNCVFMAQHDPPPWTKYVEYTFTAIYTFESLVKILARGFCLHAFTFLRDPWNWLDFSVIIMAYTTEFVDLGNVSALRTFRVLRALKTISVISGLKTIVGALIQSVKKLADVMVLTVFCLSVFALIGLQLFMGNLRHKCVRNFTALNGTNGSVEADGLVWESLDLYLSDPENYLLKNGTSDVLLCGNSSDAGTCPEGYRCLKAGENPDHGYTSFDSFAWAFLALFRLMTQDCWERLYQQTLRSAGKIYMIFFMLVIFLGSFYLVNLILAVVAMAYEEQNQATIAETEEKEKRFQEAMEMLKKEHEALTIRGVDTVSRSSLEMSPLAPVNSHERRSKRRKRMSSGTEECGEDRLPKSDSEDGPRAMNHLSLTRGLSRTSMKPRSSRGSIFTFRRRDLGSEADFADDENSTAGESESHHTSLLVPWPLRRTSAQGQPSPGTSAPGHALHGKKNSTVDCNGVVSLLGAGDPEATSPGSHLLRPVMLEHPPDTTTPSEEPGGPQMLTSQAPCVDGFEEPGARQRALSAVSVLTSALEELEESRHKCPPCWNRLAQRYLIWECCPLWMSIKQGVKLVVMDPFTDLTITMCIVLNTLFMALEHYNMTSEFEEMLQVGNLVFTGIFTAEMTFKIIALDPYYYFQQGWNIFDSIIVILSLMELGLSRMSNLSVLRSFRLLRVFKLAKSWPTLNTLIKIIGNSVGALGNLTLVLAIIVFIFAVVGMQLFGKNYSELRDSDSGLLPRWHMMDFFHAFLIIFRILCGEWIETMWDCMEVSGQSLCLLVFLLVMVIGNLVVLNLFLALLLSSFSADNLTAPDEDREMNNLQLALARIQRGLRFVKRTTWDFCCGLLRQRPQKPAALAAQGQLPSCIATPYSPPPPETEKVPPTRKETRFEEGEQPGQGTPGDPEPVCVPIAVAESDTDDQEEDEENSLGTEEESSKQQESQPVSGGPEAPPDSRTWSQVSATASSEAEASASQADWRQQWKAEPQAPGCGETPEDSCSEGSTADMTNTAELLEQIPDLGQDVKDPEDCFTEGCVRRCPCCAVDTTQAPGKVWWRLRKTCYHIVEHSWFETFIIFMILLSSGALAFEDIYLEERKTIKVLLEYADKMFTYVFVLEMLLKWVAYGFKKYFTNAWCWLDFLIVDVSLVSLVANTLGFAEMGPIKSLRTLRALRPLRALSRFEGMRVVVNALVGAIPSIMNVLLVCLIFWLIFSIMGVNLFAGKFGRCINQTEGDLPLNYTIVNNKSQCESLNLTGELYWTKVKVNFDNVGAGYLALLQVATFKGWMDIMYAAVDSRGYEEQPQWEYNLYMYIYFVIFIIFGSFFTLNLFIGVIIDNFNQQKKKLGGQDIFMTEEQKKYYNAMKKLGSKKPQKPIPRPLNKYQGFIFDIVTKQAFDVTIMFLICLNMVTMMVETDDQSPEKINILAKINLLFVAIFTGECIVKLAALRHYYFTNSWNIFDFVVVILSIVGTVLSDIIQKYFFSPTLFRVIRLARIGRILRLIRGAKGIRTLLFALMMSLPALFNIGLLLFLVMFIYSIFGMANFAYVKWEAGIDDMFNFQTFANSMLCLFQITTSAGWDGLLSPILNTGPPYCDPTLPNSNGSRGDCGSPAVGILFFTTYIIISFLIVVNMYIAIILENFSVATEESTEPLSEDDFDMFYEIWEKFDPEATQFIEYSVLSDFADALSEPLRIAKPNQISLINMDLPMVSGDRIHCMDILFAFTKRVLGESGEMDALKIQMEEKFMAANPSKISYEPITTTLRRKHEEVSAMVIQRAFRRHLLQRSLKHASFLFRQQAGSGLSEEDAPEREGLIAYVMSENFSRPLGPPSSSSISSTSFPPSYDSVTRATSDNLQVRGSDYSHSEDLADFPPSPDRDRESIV
Assay: Peak INa screening assay (tonic block and use-dependent block)
Assay type: cell-based
Settings: read-out: Peak TB (tonic block of peak INa) % Inhibition
property: inhibition at 1 µM (%)
Write the number in % without appending the unit.

Take a look at these entries with their results.
1) CN(C)[C@H]1CCN(C2=NCCOc3ccc(-c4ccc(C(F)(F)F)cc4)cc32)C1 :: 16
2) CC(C)(C)OC(=O)N1CCC(NC2=NCCOc3ccc(-c4ccc(C(F)(F)F)cc4)cc32)C1 (stereo not drawn) :: 8
3) CC(C)(C)OC(=O)N1CC[C@H](NC2=NCCOc3ccc(-c4ccc(C(F)(F)F)cc4)cc32)C1 :: 12

Would you kindly look at the next entry?
Query block: Tell me reported inhibition at 1 µM for FC(F)(F)c1ccc(-c2ccc3c(c2)C(NCC2CC2)=NCCO3)cc1 , tested with hNav1.5 Peak INa (Homo sapiens, UniProt Q14524).
Result block: 11

----------
Entries and their inhibition at 1 µM
Biological target: human Nav1.1 (Homo sapiens, UniProt P35498)
Construct: expressed in transfected cells; host or cells: HEK293, transient transfection (Qiagen Superfect), α1:β1:β2 at 10:1:1
Assay: Nav1.1 use-dependent block, whole-cell voltage clamp, 10 Hz pulse train
Type: cell-based
Conditions: Chantest conditions, read-out: NAV1.1 UDB-10 HZ % Inhibition
Quick reminder: number only, in %, skip the unit.

These recorded examples may help you get a feel for the data.
1. FC(F)(F)c1ccc(-c2ccc3c(c2)-c2ncc(Br)n2CCO3)cc1 :: -7
2. FC(F)(F)c1ccc(-c2ccc3c(c2)-c2ncc(Cc4ccccc4)n2CCO3)cc1 :: -5
3. FC(F)(F)c1ccc(-c2ccc3c(c2)-c2ncc(C4CC4)n2CCO3)cc1 :: 4

Query block: Given the entry Cc1c(Cl)nc2n1CCOc1ccc(-c3ccc(C(F)(F)F)cc3)cc1-2 , what inhibition at 1 µM was observed with human Nav1.1 (Homo sapiens, UniProt P35498)?
Result block: 0

Query block: Record FC(F)(F)c1ccc(-c2ccc3c(c2)C(NCc2ccccc2)=NCCO3)cc1 : what is its inhibition at 1 µM with human Nav1.1 (Homo sapiens, UniProt P35498)?
Result block: 9

Query block: Find inhibition at 1 µM (human Nav1.1 (Homo sapiens, UniProt P35498)) for the entry FC(F)(F)Oc1ccc(-c2ccc3c(c2)-c2nccn2CCO3)cc1
Result block: 1

----------
Biological target: hNav1.2 sodium channel (Homo sapiens)
Construct: expressed in transfected cells
Sequence (Q99250 whole entry): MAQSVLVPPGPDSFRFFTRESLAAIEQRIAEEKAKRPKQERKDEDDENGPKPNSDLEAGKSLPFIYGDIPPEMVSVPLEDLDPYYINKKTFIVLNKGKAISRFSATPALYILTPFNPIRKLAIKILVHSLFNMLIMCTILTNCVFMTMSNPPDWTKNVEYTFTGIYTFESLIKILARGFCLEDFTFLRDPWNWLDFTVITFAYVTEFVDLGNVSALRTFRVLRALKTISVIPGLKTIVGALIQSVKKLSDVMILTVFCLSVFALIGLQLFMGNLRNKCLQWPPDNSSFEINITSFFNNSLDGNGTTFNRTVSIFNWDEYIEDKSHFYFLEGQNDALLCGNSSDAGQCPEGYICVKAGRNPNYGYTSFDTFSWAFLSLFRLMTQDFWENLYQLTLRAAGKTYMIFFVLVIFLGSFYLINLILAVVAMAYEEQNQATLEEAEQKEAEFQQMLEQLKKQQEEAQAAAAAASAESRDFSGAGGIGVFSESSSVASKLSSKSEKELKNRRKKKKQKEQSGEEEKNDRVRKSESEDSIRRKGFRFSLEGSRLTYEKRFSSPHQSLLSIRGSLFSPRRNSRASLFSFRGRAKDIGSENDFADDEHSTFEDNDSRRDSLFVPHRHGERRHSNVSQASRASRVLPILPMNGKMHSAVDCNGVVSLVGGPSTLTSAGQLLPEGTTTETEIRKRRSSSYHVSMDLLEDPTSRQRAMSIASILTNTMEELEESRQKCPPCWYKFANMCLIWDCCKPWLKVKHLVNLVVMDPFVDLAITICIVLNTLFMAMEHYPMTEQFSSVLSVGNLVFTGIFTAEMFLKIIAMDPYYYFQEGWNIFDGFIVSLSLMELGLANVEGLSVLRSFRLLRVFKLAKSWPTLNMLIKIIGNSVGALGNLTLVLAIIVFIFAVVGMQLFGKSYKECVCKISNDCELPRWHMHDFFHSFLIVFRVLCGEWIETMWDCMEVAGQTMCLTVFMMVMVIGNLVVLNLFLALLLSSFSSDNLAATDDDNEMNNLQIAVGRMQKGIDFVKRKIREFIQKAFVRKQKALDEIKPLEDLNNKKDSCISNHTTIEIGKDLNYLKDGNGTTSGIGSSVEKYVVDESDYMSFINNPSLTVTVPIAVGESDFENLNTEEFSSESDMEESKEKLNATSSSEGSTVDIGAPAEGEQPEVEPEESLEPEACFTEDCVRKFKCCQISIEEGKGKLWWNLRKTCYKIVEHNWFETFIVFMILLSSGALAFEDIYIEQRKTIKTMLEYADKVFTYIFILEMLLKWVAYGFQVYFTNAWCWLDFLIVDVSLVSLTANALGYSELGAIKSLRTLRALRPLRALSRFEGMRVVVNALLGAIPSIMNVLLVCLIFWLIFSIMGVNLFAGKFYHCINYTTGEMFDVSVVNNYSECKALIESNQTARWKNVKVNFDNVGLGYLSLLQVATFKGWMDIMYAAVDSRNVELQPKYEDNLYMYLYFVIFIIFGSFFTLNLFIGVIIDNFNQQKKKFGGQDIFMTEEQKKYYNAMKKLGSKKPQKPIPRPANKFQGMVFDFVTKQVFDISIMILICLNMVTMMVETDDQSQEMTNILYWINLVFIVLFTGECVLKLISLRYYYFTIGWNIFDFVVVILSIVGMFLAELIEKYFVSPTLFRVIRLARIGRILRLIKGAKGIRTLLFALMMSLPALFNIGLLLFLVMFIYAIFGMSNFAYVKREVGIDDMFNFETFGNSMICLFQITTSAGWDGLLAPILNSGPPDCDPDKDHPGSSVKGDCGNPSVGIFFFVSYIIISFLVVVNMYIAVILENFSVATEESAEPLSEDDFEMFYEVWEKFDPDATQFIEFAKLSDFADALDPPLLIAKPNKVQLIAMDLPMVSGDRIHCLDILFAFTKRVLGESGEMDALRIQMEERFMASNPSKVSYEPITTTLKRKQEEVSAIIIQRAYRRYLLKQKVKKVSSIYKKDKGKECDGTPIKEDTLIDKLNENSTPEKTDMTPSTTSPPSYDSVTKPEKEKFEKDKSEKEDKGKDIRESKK
Assay: Nav1.2 use-dependent block, whole-cell voltage clamp, 10 Hz pulse train
Type: cell-based
Settings: Chantest conditions, read-out: NAV1.2 UDB-10 HZ % Inhibition
property: inhibition at 1 µM (%)
State the answer as a number, implicitly in %.

// below: answered compounds
1. Cc1c(Cl)nc2n1CCOc1ccc(-c3ccc(C(F)(F)F)cc3)cc1-2 [Compound I-14] :: 4
2. FC(F)(F)c1ccc(-c2ccc3c(c2)-c2ncc(C4CC4)n2CCO3)cc1 [Compound I-9] :: 0
3. FC(F)(F)c1ccc(-c2ccc3c(c2)C(NCc2ccccc2)=NCCO3)cc1 [II-2] :: 24

Query block: Looking for the measured inhibition at 1 µM of FC(F)(F)c1ccc(-c2ccc3c(c2)-c2nccn2CCO3)cc1 [Compound I-1] , can you help?
Result block: 2

Query block: Which inhibition at 1 µM is reported for this compound? FC(F)(F)c1ccc(-c2ccc3c(c2)-c2ncc(Cl)n2CCO3)cc1 [Compound I-13]
Result block: 8
